Target: PI3Kδ (Homo sapiens, UniProt O00329)
Construct: made in house
Sequence (O00329 whole entry): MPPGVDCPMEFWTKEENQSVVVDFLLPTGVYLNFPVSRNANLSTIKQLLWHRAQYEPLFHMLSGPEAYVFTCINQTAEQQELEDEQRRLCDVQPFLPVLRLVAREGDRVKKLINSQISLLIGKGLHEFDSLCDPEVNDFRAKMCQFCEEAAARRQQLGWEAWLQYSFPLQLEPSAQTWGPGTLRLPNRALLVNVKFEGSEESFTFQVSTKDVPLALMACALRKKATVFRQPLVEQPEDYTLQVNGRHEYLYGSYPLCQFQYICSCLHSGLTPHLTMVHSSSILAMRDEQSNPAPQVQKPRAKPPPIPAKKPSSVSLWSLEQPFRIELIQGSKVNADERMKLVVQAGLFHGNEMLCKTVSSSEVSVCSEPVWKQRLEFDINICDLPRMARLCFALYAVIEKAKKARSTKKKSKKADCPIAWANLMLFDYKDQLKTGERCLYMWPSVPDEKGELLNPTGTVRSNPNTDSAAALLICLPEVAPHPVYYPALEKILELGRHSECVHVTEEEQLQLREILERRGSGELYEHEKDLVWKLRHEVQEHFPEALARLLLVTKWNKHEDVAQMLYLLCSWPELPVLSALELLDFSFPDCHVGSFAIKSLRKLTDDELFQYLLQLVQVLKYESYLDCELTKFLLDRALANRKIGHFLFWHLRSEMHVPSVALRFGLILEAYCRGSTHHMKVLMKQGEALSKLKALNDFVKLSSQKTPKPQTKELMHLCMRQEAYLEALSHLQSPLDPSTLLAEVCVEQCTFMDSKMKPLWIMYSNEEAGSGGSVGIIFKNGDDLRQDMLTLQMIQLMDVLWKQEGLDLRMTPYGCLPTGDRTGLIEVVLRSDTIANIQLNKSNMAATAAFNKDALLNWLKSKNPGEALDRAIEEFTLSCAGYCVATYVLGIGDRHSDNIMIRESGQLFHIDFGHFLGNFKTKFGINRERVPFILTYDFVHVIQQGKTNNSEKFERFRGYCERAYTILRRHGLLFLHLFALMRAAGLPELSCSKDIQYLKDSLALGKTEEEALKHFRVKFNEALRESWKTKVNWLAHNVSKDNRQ
Sequence (P27986 whole entry partner): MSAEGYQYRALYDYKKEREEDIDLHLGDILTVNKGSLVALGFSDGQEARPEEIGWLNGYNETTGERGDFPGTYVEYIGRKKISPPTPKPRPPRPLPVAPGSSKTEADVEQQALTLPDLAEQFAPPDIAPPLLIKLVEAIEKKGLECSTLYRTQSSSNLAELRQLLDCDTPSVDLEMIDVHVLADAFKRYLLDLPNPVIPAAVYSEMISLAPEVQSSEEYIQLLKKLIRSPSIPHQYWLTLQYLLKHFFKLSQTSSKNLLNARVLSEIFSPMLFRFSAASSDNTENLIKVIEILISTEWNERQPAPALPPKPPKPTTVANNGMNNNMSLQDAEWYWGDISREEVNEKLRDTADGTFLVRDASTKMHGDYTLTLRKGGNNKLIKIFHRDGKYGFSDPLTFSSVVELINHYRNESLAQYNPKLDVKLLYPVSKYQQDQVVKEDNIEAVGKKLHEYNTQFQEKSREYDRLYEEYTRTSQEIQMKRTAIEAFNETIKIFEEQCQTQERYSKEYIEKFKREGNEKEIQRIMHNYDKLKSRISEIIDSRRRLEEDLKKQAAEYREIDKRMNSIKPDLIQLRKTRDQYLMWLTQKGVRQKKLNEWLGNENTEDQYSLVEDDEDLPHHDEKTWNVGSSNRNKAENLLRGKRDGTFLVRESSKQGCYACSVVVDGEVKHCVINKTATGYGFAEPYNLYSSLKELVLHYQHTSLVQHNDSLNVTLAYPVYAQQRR
Assay: TR-FRET enzymatic activity assay, PI3Kδ
Assay type: biochemical
Conditions: Table 2; TR-FRET, 2x Km ATP, 30 minutes at 25° C.
Collected IC50 values appear next to each entry.
Just the number plus its unit, please.

Please review the following examples before continuing.
COMPOUND: CC[C@H](Nc1ncnc2scnc12)c1nc2cccc(Cl)c2c(=O)n1-c1n[nH]cc1Br [Compound 77]
IC50: 5 nM
//
COMPOUND: Nc1nc(N)c(Cl)c(N[C@H](c2nc3c(Cl)ccc(Cl)c3c(=O)n2-c2cc[nH]n2)C2CC2)n1 [Compound 71]
IC50: 13 nM
//
COMPOUND: CC[C@H](Nc1nc(N)nc(N)c1Cl)c1nc2c(C#N)cccc2c(=O)n1-c1cn[nH]c1 [Compound 95]
IC50: 300 nM
//
COMPOUND: CC[C@H](Nc1nc(N)nc(N)c1C#N)c1nc2c(C#N)cccc2c(=O)n1-c1cc[nH]n1 [Compound 75]
IC50: 3 nM
//
COMPOUND: CC[C@H](Nc1nc(N)nc(N)c1C#N)c1nc2cccc(Br)c2c(=O)n1-c1cc[nH]n1 [Compound 98]
IC50: 0.6 nM

Turning to the following compound.
Prompt: Name the recorded IC50 of the item Nc1nc(N)c(Cl)c(N[C@H](c2nc3ccc(F)cc3c(=O)n2-c2cc[nH]n2)C2CC2)n1 [Compound 114] in your answer.
Response: 23 nM

----------
Recorded pIC50, one value per entry.
Molecular target: PI3Kβ (Homo sapiens, UniProt P42338)
Construct: made in house
Sequence (P42338 whole entry): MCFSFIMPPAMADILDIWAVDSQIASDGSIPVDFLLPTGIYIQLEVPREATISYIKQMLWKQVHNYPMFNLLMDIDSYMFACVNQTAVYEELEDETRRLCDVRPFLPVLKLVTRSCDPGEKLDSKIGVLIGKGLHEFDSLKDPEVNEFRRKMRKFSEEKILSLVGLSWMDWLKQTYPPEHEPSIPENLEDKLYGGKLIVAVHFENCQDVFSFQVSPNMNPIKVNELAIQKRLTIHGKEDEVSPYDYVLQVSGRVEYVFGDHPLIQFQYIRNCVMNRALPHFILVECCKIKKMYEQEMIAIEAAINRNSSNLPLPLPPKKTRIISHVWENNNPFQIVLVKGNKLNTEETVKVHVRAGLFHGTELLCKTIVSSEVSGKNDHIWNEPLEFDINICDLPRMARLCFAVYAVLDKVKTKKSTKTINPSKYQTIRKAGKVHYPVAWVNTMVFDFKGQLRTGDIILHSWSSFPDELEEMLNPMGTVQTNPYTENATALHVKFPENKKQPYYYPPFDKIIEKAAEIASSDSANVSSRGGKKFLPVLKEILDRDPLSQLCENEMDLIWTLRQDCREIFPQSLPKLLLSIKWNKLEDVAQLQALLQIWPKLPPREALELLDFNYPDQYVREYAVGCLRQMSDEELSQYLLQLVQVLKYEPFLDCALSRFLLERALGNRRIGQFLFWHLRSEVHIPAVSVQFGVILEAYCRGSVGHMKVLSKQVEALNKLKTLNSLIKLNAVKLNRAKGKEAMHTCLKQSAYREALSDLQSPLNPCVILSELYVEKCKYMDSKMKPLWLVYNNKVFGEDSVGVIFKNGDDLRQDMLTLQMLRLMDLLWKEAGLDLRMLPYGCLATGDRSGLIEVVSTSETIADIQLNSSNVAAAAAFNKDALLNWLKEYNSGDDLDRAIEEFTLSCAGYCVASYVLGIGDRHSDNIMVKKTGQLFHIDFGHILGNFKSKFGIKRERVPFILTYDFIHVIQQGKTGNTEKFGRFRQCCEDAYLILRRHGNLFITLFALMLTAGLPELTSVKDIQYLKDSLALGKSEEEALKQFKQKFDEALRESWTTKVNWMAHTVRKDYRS
Sequence (P27986 whole entry partner): as the sequence (P27986 whole entry partner) above
Experiment: TR-FRET enzymatic activity assay, PI3Kβ
Assay type: biochemical
Conditions: Table 2; TR-FRET, 2x Km ATP, 30 minutes at 25° C.
Formally, pIC50 is defined as -log10 of the concentration c, with c in mol/L.

Prompt: # return recorded pIC50 for input CC[C@H](Nc1ncnc2scnc12)c1nc2cccc(Br)c2c(=O)n1-c1cn[nH]c1 [Compound 100]
Response: 7.66

Prompt: Provide only the value of recorded pIC50 for Nc1nc(N)c(Cl)c(N[C@H](c2nc3c(Cl)ccc(Cl)c3c(=O)n2-c2cc[nH]n2)C2CC2)n1 [Compound 71]
Response: 7.42

Prompt: Input C[C@H](Nc1ncnc(N)c1C#Cc1ccc(F)cn1)c1nc2cccc(Cl)c2c(=O)n1-c1cc[nH]n1 [Compound 72] , output reported pIC50.
Response: 8.40

Prompt: Answer with the recorded pIC50 for the compound listed here: CC[C@H](NC(=O)c1cnn2cccnc12)c1nc2c(Cl)ccc(Cl)c2c(=O)n1-c1cc[nH]n1 [Compound 120]
Response: 6.28

Prompt: Provide measured pIC50 value, entry: C[C@H](Nc1nc(N)nc(N)c1C#N)c1nc2cccc(Cl)c2c(=O)n1-c1n[nH]cc1Br [Compound 84]
Response: 8.10

Prompt: Tell me measured pIC50 for Cc1c[nH]nc1-n1c([C@H](C)Nc2ncnc(N)c2C#N)nc2cccc(Cl)c2c1=O [Compound 3] please.
Response: 7.26

Prompt: Report measured pIC50; entry is CC[C@H](Nc1ncnc2[nH]cc(F)c12)c1nc2c(Cl)ccc(Cl)c2c(=O)n1-c1cn[nH]c1 [Compound 58]
Response: 6.49

Prompt: Complete the entry with pIC50 for CC[C@H](Nc1ncnc2ccoc12)c1nc2c(Cl)ccc(Cl)c2c(=O)n1-c1cc[nH]n1 [Compound 62]
Response: 6.92

Prompt: Give recorded pIC50. CC[C@H](Nc1ncnc2ccc(Cl)nc12)c1nc2c(Cl)ccc(Cl)c2c(=O)n1-c1cn[nH]c1 [Compound 42]
Response: 7.11

Prompt: State its pIC50: N#Cc1c(N)nc(N)nc1N[C@H](c1nc2c(Cl)ccc(Cl)c2c(=O)n1-c1cc[nH]n1)C1CC1 [Compound 32]
Response: 9.00

Prompt: Let me know recorded pIC50 for N#Cc1c(N)nc(N)nc1N[C@@H](c1ccccc1)c1nc2cccc(Cl)c2c(=O)n1-c1cc[nH]n1 [Compound 105] , thanks.
Response: 8.30

Prompt: Supply recorded pIC50 for CC[C@H](Nc1nc(N)nc(N)c1C#N)c1nc2cccc(Br)c2c(=O)n1-c1cc[nH]n1 [Compound 98] here.
Response: 9.52

Prompt: Give pIC50 for Cc1cc(-n2c([C@H](C)Nc3ncnc(N)c3C#N)nc3cccc(Cl)c3c2=O)n[nH]1 [Compound 7]
Response: 6.70

Prompt: Supply pIC50 value. Item: CC[C@H](Nc1nc(N)nc(Cl)c1C#N)c1nc2c(C#N)cccc2c(=O)n1-c1cc[nH]n1 [Compound 96]
Response: 7.66

Prompt: For the compound CC[C@H](Nc1nc(N)nc2[nH]nc(Br)c12)c1nc2cccc(C#N)c2c(=O)n1-c1cn[nH]c1 [Compound 79] , give its reported pIC50.
Response: 6.19

Prompt: Using the record for N#Cc1c(N)nc(N)nc1N[C@H](c1nc2c(Cl)cccc2c(=O)n1-c1cn[nH]c1)C1CC1 [Compound 29] , state its measured pIC50.
Response: 8.52

Prompt: Dear colleague, please send me the reported pIC50 for Cc1cc(-n2c([C@H](C)Nc3ncnc4scnc34)nc3cccc(Cl)c3c2=O)n[nH]1 [Compound 8] when you can.
Response: 7.39

Prompt: Using the record for N#Cc1c(N)nc(N)nc1N[C@H](c1nc2cccc(Cl)c2c(=O)n1-c1cn[nH]c1)C1CC1 [Compound 17] , state its measured pIC50.
Response: 8.70

Prompt: For the compound O=c1c2c(Cl)cccc2nc([C@H](CO)Nc2ncnc3scnc23)n1-c1cc[nH]n1 [Compound 51] , give its measured pIC50 value.
Response: 8.05

Prompt: Answer with the recorded pIC50 of CC[C@H](NC(=O)c1cnn2cccnc12)c1nc2c(Cl)ccc(Cl)c2c(=O)n1-c1cn[nH]c1 [Compound 119] only.
Response: 6.44

Prompt: Check the records and state pIC50 for N#Cc1c(N)nc(N)nc1N[C@H](c1nc2ccc(F)cc2c(=O)n1-c1cc[nH]n1)C1CC1 [Compound 113]
Response: 8.70

Prompt: Provide measured pIC50 value, entry: CC[C@H](Nc1ncnc2scnc12)c1nc2cccc(C#N)c2c(=O)n1-c1cc[nH]n1 [Compound 73]
Response: 7.02

Prompt: Determine its reported pIC50: Cc1nc(N)nc(N[C@@H](c2ccccc2)c2nc3cccc(Cl)c3c(=O)n2-c2cc[nH]n2)c1C#N [Compound 110]
Response: 8.40

Prompt: Report measured pIC50; entry is Nc1nc(N)c(Cl)c(N[C@@H](c2ccccc2)c2nc3cccc(Cl)c3c(=O)n2-c2cn[nH]c2)n1 [Compound 107]
Response: 7.31

Prompt: Identify pIC50 associated with the compound Nc1nc(N)c(Cl)c(N[C@H](c2nc3ccc(F)cc3c(=O)n2-c2cc[nH]n2)C2CC2)n1 [Compound 114]
Response: 6.96
